# tgt: pTyr-containing peptide (pEZ) derived from Ezrin, PPV{pTyr}EPVS
# experiment: fluorescence polarization; fold change over wt Fes SH2
measurement_name: Fold Change (fold)

- sFes^1 (SuperFes), superbinder Fes SH2 domain variant (designed binder) MKIEEHHHHHHSSGKLGLNDIFEAQKIEWHESSGEDLYFQSGTTMDDYKDDDDKGGSEVQKPLHEQLWYHGAIPRAEVAELLVHSGDFLVREGQSQPDYVLSVLWDGLPRHFIIQSLDNLYRLEGEGFPSIPLLIDHLLSTQQPLTKKSGVVLHRAVPSR: 493
- sFes^2, superbinder Fes SH2 domain variant (designed binder) MKIEEHHHHHHSSGKLGLNDIFEAQKIEWHESSGEDLYFQSGTTMDDYKDDDDKGGSEVQKPLHEQLWYHGAIPRAEVAELLVHSGDFLVRERQRKQEYVLSVLWDGLPRHFIIQSLDNLYRLEGEGFPSIPLLIDHLLSTQQPLTKKSGVVLHRAVPSR: 344
